# EXPERIMENTAL_PROTOCOL: qHTS assay for small molecule agonists of the antioxidant response element (ARE) signaling pathway - cell viability counter screen (AID 743203); note: nearly all actives have a fitted effect of over 55% in size
# TEST_SETTINGS: ARE-bla HepG2 viability, CellTiter-Glo luminescence, 16 h; series mostly up to 73.3 µM
Inconclusive results are not listed. Calls of active or inactive are those of the source. Calls come from the whole dose curve.
Outcomes: Y = active, N = inactive

COMPOUND	ASSIGNED_CATEGORY
S=C(SSC(=S)N1CCCCC1)N1CCCCC1	N
Cc1cc(C)c(C2=C(OC(=O)CC(C)(C)C)C3(CCCC3)OC2=O)c(C)c1	N
CC(C)OS(C)(=O)=O	N
ClC1=C(Cl)C2(Cl)C3C(Cl)C=CC3C1(Cl)C2(Cl)Cl (stereo unspecified)	Y
Cc1ccc(OP(=O)(Oc2ccccc2)Oc2ccccc2)cc1	N
N#C/C=C/C#N	N
CCc1nn(C)c(C(=O)NCc2ccc(C(C)(C)C)cc2)c1Cl	Y
CCCN(CCC)c1c([N+](=O)[O-])cc(S(N)(=O)=O)cc1[N+](=O)[O-]	Y
CC(C)OC(=S)S	N
CCCCN(CCCC)C(=S)[S-].CCCCN(CCCC)C(=S)[S-].[Zn+2]	Y
Clc1ccc(C(Cl)(Cl)Cl)c(Cl)c1	N
CC(C)(C)C(O)/C(=C\c1ccc(Cl)cc1Cl)n1cncn1 (stereo unspecified)	Y
[Hg+2].[I-].[I-]	Y
CN(C)S(=O)(=O)N(SC(F)(Cl)Cl)c1ccccc1	Y
O=C(CBr)c1ccc(O)cc1	N
O=[N+]([O-])c1ccc(Oc2ccc(C(F)(F)F)cc2[N+](=O)[O-])cc1	N
CC(C)[C@H](C(=O)OC(C#N)c1cccc(Oc2ccccc2)c1)c1ccc(OC(F)F)cc1 (stereo partly specified)	N
CC(C)CCCCCCCOP(=O)(Oc1ccccc1)Oc1ccccc1	N
CCC(C)(C)C(=O)OC1=C(c2ccc(Cl)cc2Cl)C(=O)OC12CCCCC2	Y
CCCCCCCCCCCCCCCCCCn1cc[n+](C)c1	Y
Clc1ccc(CSC(Cn2ccnc2)c2ccc(Cl)cc2Cl)cc1 (stereo unspecified)	Y

###

# SYSTEM: Nuclear receptor ROR-gamma (Homo sapiens) (UniProt P51449)
# EXPERIMENTAL_PROTOCOL: qHTS assay to identify small molecule antagonists of the retinoid-related orphan receptor gamma (ROR-gamma) signaling pathway (AID 1159521; note: nearly all actives have a fitted effect of over 50% in size)
# TEST_SETTINGS: Tet-on RORgamma CHO cells, RORE-luciferase, 16 h; series mostly up to 92.4 µM
Results filed as inconclusive are left out. Activity calls are given as the source filed them. Calls come from the whole dose curve; as a rule, active = well fitted inhibition curve with a large enough effect in the repeat runs; inconclusive = weak or mixed curves, or effect the other way; inactive = no such curve, though single readings can be large or run the other way.
Outcomes: active, inactive

SMILES_DATA	ASSIGNED_CATEGORY
CC(C)OC(=O)C(O)(c1ccc(Cl)cc1)c1ccc(Cl)cc1	active
O=CC(Br)(Br)Br	inactive
C[C@]12CC[C@H](O)C[C@H]1CC[C@@H]1[C@@H]2C[C@@H](O)[C@]2(C)[C@@H](C3=CC(=O)OC3)CC[C@]12O	inactive
CCN(CC)C(=S)[S-].CCN(CC)C(=S)[S-].[Zn+2]	active
C[C@@H]1O[C@@H](O[C@@H]2C=C3CC[C@@H]4[C@H](CC[C@]5(C)[C@@H](c6ccc(=O)oc6)CC[C@]45O)[C@@]3(C)CC2)[C@H](O)[C@H](O)[C@H]1O	active
O=C(CCl)Nc1ccccc1	active
CCCSP(=O)(OCC)SCCC	inactive
Cc1cc(C)c(C2=C(OC(=O)CC(C)(C)C)C3(CCCC3)OC2=O)c(C)c1	inactive
NC(=O)CCl	inactive
CCOC(=O)C1(c2ccccc2)CCN(CCC(C#N)(c2ccccc2)c2ccccc2)CC1	active
Oc1ccc2ccc3cccc4ccc1c2c34	inactive
